- Test System: rat brain A2a receptor (Rattus norvegicus, UniProt P30543)
- Construct: A2 receptors from rat striatal membranes; from tissue; host or cells: rat striatal membranes
- Sequence (P30543 whole entry): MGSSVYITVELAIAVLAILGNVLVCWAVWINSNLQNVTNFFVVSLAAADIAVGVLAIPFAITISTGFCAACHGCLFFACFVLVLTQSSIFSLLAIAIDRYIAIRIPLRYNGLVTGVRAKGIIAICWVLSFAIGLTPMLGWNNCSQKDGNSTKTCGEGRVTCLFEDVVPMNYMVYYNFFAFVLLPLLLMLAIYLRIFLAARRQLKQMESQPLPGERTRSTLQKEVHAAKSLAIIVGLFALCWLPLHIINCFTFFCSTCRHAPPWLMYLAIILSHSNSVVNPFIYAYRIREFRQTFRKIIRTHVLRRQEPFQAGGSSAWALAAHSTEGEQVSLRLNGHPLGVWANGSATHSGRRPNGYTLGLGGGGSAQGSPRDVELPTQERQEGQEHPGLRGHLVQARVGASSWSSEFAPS
- Method Description: Displacement of [^3 H]CGS 21680 binding at A2a receptors
- Conditions Used: [^3 H]CGS 21680, rat brain membranes; Ki ± S.E.M., n = 3-6
Simple rule here: Ki less than 20 µM is 1.0, otherwise 0.0.

These recorded examples may help you get a feel for the data.
Find out if reported Ki for CNC(=O)[C@@H]1C[C@@H](O)[C@H](n2cnc3c(NCc4cccc(I)c4)nc(Cl)nc32)O1 [Compound 41b] is less than 20 µM
1.0

Does this compound meet the criterion Ki < 20 µM? N#CCCCn1cnc2c(NCc3cccc(I)c3)ncnc21
1.0

New cases:
A record lists CNC(=O)[C@@H]1C[C@H](N=[N+]=[N-])[C@H](n2cnc3c(NCc4cccc(I)c4)nc(Cl)nc32)O1 . Is its Ki below 20 µM?
0.0

Is 20 µM strictly greater than the compound's reported Ki? compound: CNC(=O)[C@@H]1C[C@@H](OC(C)=O)[C@H](n2cnc3c(NCc4cccc(I)c4)nc(Cl)nc32)O1
1.0

Consider the compound CNC(=O)[C@@H]1C[C@@H](OS(C)(=O)=O)[C@H](n2cnc3c(NCc4cccc(I)c4)nc(Cl)nc32)O1 . Is its Ki strictly less than 20 µM?
0.0

In plain terms, does CN(C)c1nc(NCc2cccc(I)c2)c2ncn(C)c2n1 come in under 20 µM for Ki?
1.0

Lab log: compare recorded Ki with 20 µM; is it strictly lower for COc1nc(NCc2cccc(I)c2)c2ncn(C)c2n1 ?
1.0

Please indicate whether the reported Ki of CNC(=O)[C@@H]1CC[C@H](n2cnc3c(NCc4ccccc4)nc(Cl)nc32)O1 is strictly below 20 µM.
0.0

###

Would you mind telling me the reported Ratio Conc./Ki (A3) of each entry?
- Test System: rat A3 adenosine receptors (Rattus norvegicus)
- Construct: expressed in transfected cells; host or cells: CHO cells, stably transfected
- Method Description: Inhibition of adenylate cyclase in CHO cells stably transfected with rat A3 adenosine receptors
- Assay type: cell-based
- Conditions Used: test concentration divided by Ki (A3)

Find the recorded Ratio Conc./Ki (A3) belonging to CNC(=O)[C@@H]1C[C@@H](OC(C)=O)[C@H](n2cnc3c(NCc4cccc(I)c4)nc(Cl)nc32)O1 [Compound 37] and report it.
320

Endpoint output: Ratio Conc./Ki (A3) of CNC(=O)[C@H]1O[C@@H](n2cnc3c(NCc4cccc(I)c4)nc(Cl)nc32)[C@@H]2OC(=S)O[C@@H]21 [Compound 46] . Value?
8200

Record request: Ratio Conc./Ki (A3) value, item CC(C)[Si]1(C(C)C)OC[C@H]2O[C@@H](n3cnc4c(NCc5cccc(I)c5)nc(Cl)nc43)[C@H](O)[C@@H]2O[Si](C(C)C)(C(C)C)O1 [Compound 45]
7.6

Tell me the measured Ratio Conc./Ki (A3) of CSc1nc(NCc2cccc(I)c2)c2ncn(C)c2n1 [Compound 16] , please.
330

Could you share which Ratio Conc./Ki (A3) value was measured for CNC(=O)[C@@H]1CC[C@H](n2cnc3c(NCc4ccccc4)nc(Cl)nc32)O1 [Compound 40] ?
1.3

Return reported Ratio Conc./Ki (A3) values for all items listed beneath this line.
1. CSc1nc(NCc2cccc(I)c2)c2ncn(C[C@@H](O)CO)c2n1 [Compound 19b]
2. CNC(=O)[C@@H]1C[C@H](N=[N+]=[N-])[C@H](n2cnc3c(NCc4cccc(I)c4)nc(Cl)nc32)O1 [Compound 42]

1: 4.6; 2: 17

###

- Test System: rat A3 adenosine receptors (Rattus norvegicus)
- Construct: expressed in transfected cells; host or cells: CHO cells, stably transfected
- Method Description: Inhibition of adenylate cyclase in CHO cells stably transfected with rat A3 adenosine receptors
- Format: cell-based
- Conditions Used: test concentration divided by Ki (A3)
Quantity Name: Ratio Conc./Ki (A3)
Answers are plain numbers.

Solved cases (2 shown):
Requested field: Ratio Conc./Ki (A3). Item: O[C@@H]1[C@H](O)CO[C@H]1n1cnc2c(NCc3cccc(I)c3)nc(Cl)nc21 [Compound 28]
360

For the molecule CNC(=O)[C@@H]1C[C@@H](O)[C@H](n2cnc3c(NCc4cccc(I)c4)nc(Cl)nc32)O1 [Compound 41b] , what Ratio Conc./Ki (A3) is on record?
3000

Next:
GET /values?readout=Ratio Conc./Ki (A3)&item= CNC(=O)[C@@H]1C[C@H](F)[C@H](n2cnc3c(NCc4cccc(I)c4)nc(Cl)nc32)O1 [Compound 44]
5.6

###

Assign log10 Ki to each entry below.
- Test System: rat brain A2a receptor (Rattus norvegicus, UniProt P30543)
- Construct: A2 receptors from rat striatal membranes; from tissue; host or cells: rat striatal membranes
- Method Description: Displacement of [^3 H]CGS 21680 binding at A2a receptors
- Conditions Used: [^3 H]CGS 21680, rat brain membranes; Ki ± S.E.M., n = 3-6
log10 Ki, µM

Any idea what log10 Ki was measured for CSc1nc(NCc2cccc(I)c2)c2ncn(C)c2n1 ?
0.21

Could you share which log10 Ki value was measured for CNc1nc(NCc2cccc(I)c2)c2ncn(C)c2n1 ?
0.55

Would you kindly share the measured log10 Ki for OC[C@H](O)Cn1cnc2c(NCc3cccc(I)c3)ncnc21 ?
1.62

Entry OC[C@@H](O)Cn1cnc2c(NCc3cccc(I)c3)ncnc21 has what log10 Ki?
1.28

Please give log10 Ki, item by item, for the list that follows.
1. Cn1cnc2c(NCc3cccc(I)c3)nc(Cl)nc21
2. Cn1cnc2c(NCc3cccc(I)c3)nc(N)nc21
3. Cn1cnc2c(NCc3cccc(I)c3)nc(Sc3ccncc3)nc21
4. CNC(=O)[C@H]1O[C@@H](n2cnc3c(NCc4cccc(I)c4)nc(Cl)nc32)[C@@H]2OC(=S)O[C@@H]21
5. OCCn1cnc2c(NCc3cccc(I)c3)ncnc21
6. CNC(=O)[C@H]1O[C@@H](n2cnc3c(NCc4ccco4)ncnc32)[C@H](O)[C@@H]1O
7. Cn1cnc2c(NCc3cccc(I)c3)nc(NN)nc21

1. 0.43
2. 0.51
3. 1.06
4. -0.06
5. 1.18
6. 0.79
7. 1.29

Which log10 Ki reading was recorded for the molecule Cn1cnc2c(NCc3cccc(I)c3)ncnc21 ?
0.35

###

Please provide measured pKi for the entries that follow.
- Test System: rat brain A2a receptor (Rattus norvegicus, UniProt P30543)
- Construct: A2 receptors from rat striatal membranes; from tissue; host or cells: rat striatal membranes
- Method Description: Displacement of [^3 H]CGS 21680 binding at A2a receptors
Give bare numbers, as −log10 of the molar value.

Please look up its pKi: CNC(=O)[C@H]1O[C@@H](n2cnc3c(NNc4ccccc4)ncnc32)[C@H](O)[C@@H]1O
5.15

Looking for the measured pKi of O[C@@H]1[C@H](O)CO[C@H]1n1cnc2c(NCc3cccc(I)c3)nc(Cl)nc21 , can you help?
5.54

Need pKi of CCCNc1nc(NCc2cccc(I)c2)c2ncn(C)c2n1 , thanks.
5.76

Can you look up the measured pKi of Clc1nc(NCc2cccc(I)c2)c2ncn(C3CCCO3)c2n1 (stereo not drawn) for me?
5.39

Which pKi value is on record for CNC(=O)[C@H]1O[C@@H](n2cnc3c(NCc4cccc(NC(=O)[C@@H]5CCCN5)c4)ncnc32)[C@H](O)[C@@H]1O ?
6.67

# get_value(readout='pKi', item= CNC(=O)[C@H]1O[C@@H](n2cnc3c(NCc4cccc(NC(=O)CCNC(=O)OC(C)(C)C)c4)ncnc32)[C@H](O)[C@@H]1O )
5.71

Give pKi for all compounds that follow.
1. CNC(=O)[C@H]1O[C@@H](n2cnc3c(NOc4ccccc4)ncnc32)[C@H](O)[C@@H]1O
2. CNC(=O)[C@H]1O[C@@H](n2cnc3c(NCc4cccc(NC(=O)CCN)c4)ncnc32)[C@H](O)[C@@H]1O
3. CNc1nc(NCc2cccc(I)c2)c2ncn([C@@H]3OC[C@@H](O)[C@H]3O)c2n1

[4.18, 6.84, 5.47]

###

- Test System: rat A3 adenosine receptors (Rattus norvegicus, UniProt P28647)
- Construct: expressed in transfected cells; host or cells: CHO cells, stably transfected
- Sequence (P28647 whole entry): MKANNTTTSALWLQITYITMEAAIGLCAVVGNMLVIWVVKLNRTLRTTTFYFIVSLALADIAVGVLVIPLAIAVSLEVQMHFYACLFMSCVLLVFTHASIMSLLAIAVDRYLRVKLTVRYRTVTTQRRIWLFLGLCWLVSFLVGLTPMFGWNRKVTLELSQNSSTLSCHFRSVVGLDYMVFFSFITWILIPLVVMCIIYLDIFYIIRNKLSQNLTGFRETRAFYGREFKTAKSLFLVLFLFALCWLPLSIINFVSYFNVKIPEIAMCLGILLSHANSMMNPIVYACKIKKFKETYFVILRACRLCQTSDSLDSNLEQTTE
- Method Description: Inhibition of adenylate cyclase in CHO cells stably transfected with rat A3 adenosine receptors
- Type: cell-based
- Conditions Used: CHO; 100 μM; 1 μM forskolin; average ± S.E.M. for 2-3 determinations or a single value; read-out: % Inhib. (adenylate cyclase)
Response key: rule met means inhibition at 100 µM >= 20%; rule not met means inhibition at 100 µM < 20%.

Kindly determine if inhibition at 100 µM recorded for CNC(=O)[C@@H]1C[C@@H](O)[C@H](n2cnc3c(NCc4cccc(I)c4)nc(Cl)nc32)O1 [Compound 41b] is above or exactly 20%.
rule met

Now examine the next entry.
Hi, just wondering whether CNC(=O)[C@@H]1C[C@H](F)[C@H](n2cnc3c(NCc4cccc(I)c4)nc(Cl)nc32)O1 [Compound 44] shows inhibition at 100 µM of 20% or higher.
rule not met
